Ki listing for selected compounds.
# experimentalTarget: HCV NS3 protease genotype 3a (3A-1) (Hepatitis C virus genotype 3a)
# Sequence (Q81258 1664-1717): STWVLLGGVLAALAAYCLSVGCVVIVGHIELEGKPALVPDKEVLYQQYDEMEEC
# Sequence (Q81258 1033-1663): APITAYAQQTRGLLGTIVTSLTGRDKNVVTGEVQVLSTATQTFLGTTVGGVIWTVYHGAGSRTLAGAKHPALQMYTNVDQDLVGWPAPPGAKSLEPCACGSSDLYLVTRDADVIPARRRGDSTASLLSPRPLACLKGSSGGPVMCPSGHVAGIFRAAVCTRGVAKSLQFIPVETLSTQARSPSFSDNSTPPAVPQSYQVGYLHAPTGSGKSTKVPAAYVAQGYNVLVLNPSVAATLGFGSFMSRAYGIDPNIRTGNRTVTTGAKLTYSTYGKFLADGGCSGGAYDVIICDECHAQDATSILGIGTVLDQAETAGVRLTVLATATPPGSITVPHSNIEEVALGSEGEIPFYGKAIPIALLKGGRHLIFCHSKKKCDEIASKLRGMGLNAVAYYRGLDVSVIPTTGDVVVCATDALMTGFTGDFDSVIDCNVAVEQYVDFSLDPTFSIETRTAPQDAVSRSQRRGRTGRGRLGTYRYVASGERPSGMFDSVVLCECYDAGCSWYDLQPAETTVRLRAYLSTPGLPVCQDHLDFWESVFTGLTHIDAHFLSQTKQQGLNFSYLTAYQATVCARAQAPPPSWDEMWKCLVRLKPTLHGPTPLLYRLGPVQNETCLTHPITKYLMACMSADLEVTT
# protocolDescription: HCV NS3 protease time-resolved fluorescence (TRF) assay, genotype 3a
# Type: biochemical
# measurementConditions: Ki 3a

{"columns": ["compound", "experimentalTarget", "Ki, nM"],
 "data": [
  ["C=C[C@@H]1C[C@]1(NC(=O)[C@@H]1C[C@@H]2CN1C(=O)[C@H](C(C)(C)C)NC(=O)O[C@@H]1C[C@H]1CCCCCc1c(nc3cc(C)ccc3c1OCCCNC1CC1)O2)C(=O)NS(=O)(=O)C1(C)CC1", "HCV NS3 protease genotype 3a (3A-1) (Hepatitis C virus genotype 3a)", 1.2],
  ["C=C[C@@H]1C[C@]1(NC(=O)[C@@H]1C[C@@H]2CN1C(=O)[C@H](C(C)(C)C)NC(=O)O[C@@H]1C[C@H]1CCCCCc1c(nc3ccccc3c1OC1CCN(CCOC)CC1)O2)C(=O)NS(=O)(=O)C1(C)CC1", "HCV NS3 protease genotype 3a (3A-1) (Hepatitis C virus genotype 3a)", 0.6],
  ["C=C[C@@H]1CC1(NC(=O)[C@@H]1C[C@@H]2CN1C(=O)[C@H](C1CCCCC1)NC(=O)O[C@@H]1C[C@H]1CCCCCc1c(nc3ccccc3c1OC1CCN(CCOC(F)(F)F)CC1)O2)C(=O)NS(=O)(=O)C1(C)CC1 (stereo partly drawn)", "HCV NS3 protease genotype 3a (3A-1) (Hepatitis C virus genotype 3a)", 1.2],
  ["C=C[C@@H]1C[C@]1(NC(=O)[C@@H]1C[C@@H]2CN1C(=O)[C@H](C1Cc3ccccc3C1)NC(=O)O[C@@H]1C[C@H]1CCCCCc1c(nc3ccccc3c1OCCCN(C)C)O2)C(=O)NS(=O)(=O)C1(C)CC1", "HCV NS3 protease genotype 3a (3A-1) (Hepatitis C virus genotype 3a)", 4.2],
  ["C=C[C@@H]1C[C@]1(NC(=O)[C@@H]1C[C@@H]2CN1C(=O)[C@H](C(C)(C)C)NC(=O)O[C@@H]1C[C@H]1CCCCCc1c(nc3ccccc3c1OC1CC3CCC(C1)N3)O2)C(=O)NS(=O)(=O)C1(C)CC1 (single isomer, unassigned) [Example 274]", "HCV NS3 protease genotype 3a (3A-1) (Hepatitis C virus genotype 3a)", 0.094],
  ["C=C[C@@H]1C[C@]1(NC(=O)[C@@H]1C[C@@H]2CN1C(=O)[C@H](C(C)(C)C)NC(=O)O[C@@H]1CCC[C@H]1CCCCCc1c(nc3ccccc3c1OCCN1CCOCC1)O2)C(=O)NS(=O)(=O)C1(COC)CC1", "HCV NS3 protease genotype 3a (3A-1) (Hepatitis C virus genotype 3a)", 20],
  ["C=C[C@@H]1C[C@]1(NC(=O)[C@@H]1C[C@@H]2CN1C(=O)[C@H](C(C)(C)C)NC(=O)O[C@@H]1C[C@H]1CCCCCc1c(nc3ccccc3c1OCCCN1CCC(OC)CC1)O2)C(=O)NS(=O)(=O)C1(C)CC1", "HCV NS3 protease genotype 3a (3A-1) (Hepatitis C virus genotype 3a)", 0.84],
  ["C=C[C@@H]1C[C@]1(NC(=O)[C@@H]1C[C@@H]2CN1C(=O)[C@H](C1CCCC1)NC(=O)O[C@@H]1CCC[C@H]1CC/C=C/Cc1c(nc3ccccc3c1OCCC1OCCO1)O2)C(=O)NS(=O)(=O)C1(C)CC1", "HCV NS3 protease genotype 3a (3A-1) (Hepatitis C virus genotype 3a)", 6.6],
  ["C=C[C@@H]1C[C@]1(NC(=O)[C@@H]1C[C@@H]2CN1C(=O)[C@H](C(C)(C)C)NC(=O)O[C@@H]1CCC[C@H]1CCCCCc1c(nc3ccccc3c1O)O2)C(=O)NS(=O)(=O)C1(C(=C)C)CC1", "HCV NS3 protease genotype 3a (3A-1) (Hepatitis C virus genotype 3a)", 6]
]}

Sourced from patent US9328138B2
